Hey, just so you know, these numbers are from ChEMBL document CHEMBL1201862.

Listing of recorded GI50 by entry.
- Test system: KM12
- Assay procedure: NCI tumour cell line growth inhibition, 48 h
Activity calls are given as the source filed them. Cut-off read from the data, not from the text of the source: active = GI50 up to about 1.1 µM and inactive = higher.

Completed entries (count: 10):
COc1ccc(C[C@H]2COC(=O)[C@@H]2Cc2ccccc2)cc1OC ... > 100 µM (inactive)
CC1=C/C(=N/N2C(=O)/C(=C/c3ccc(Cl)cc3)N=C2c2ccccc2)CC(C)(C)C1 ... 51.1 µM (inactive)
C/C(=C\CBr)CCC(Br)C(C)(C)Br (centres undefined) ... > 100 µM (inactive)
CCc1nc(N)nc(N)c1-c1ccc2c(c1)nnn2CCc1ccccc1 ... 14.1 µM (inactive)
COc1cc2nc(-c3ccc4ccccc4c3)nc(O)c2cc1OC ... > 100 µM (inactive)
C/C(=N\NC(=N)N)C(CN1CCOCC1)C(c1ccccc1)c1c(O)c2ccccc2oc1=O (centres undefined) ... > 100 µM (inactive)
COC(=O)C1(C)CCCC2(C)c3cc(OC)ccc3C(=O)C(Br)C12 (centres undefined) ... > 10 µM (inactive)
COC(=O)/C=C/COCC1C2CCC(=O)C21 (centres undefined) ... > 100 µM (inactive)
CSc1ncc2c(n1)-c1ccccc1OC2N1CCCCC1 (centres undefined) ... 38.5 µM (inactive)
COCn1c(C)c(C)c2c(=O)oc(N(C)C)nc21 ... > 100 µM (inactive)

Assay KM12, sample c1ccc2c(c1)nnn1c3cnccc3nc21 , GI50 read: 23.9 µM (inactive)

Measured on KM12, Cn1c(=O)cc(/N=N\c2ccc(Cl)c(Cl)c2)[nH]c1=O has a documented GI50 of > 100 µM (inactive)

Response field GI50 (KM12) for item C=C1C(=O)C23C(O)C1CCC2C12CO[C@]3(O)[C@@H](O)C1C(C)(C)CCC2O (some centres undefined) : 16.1 µM (inactive)

The recorded GI50 with KM12 for Nc1nc(-c2cccnc2)cc(-c2cc(-c3cccnc3)nc(N)n2)n1 was > 100 µM (inactive)

###

- System: TK-10
- Assay procedure: NCI tumour cell line growth inhibition, 48 h
Active and inactive are the calls of the source. Rule as the data show it: active = GI50 up to about 1.1 µM and inactive = higher.
Reported property: GI50

These recorded examples may help you get a feel for the data.
CC12c3c4cccc3Oc3cc(N)cc(c31)Oc1cc(N)cc(c12)O4 ... 10 µM (inactive)
COC(=O)[C@H](Cc1ccccc1)NC(=O)c1ccc(CNC(=O)/C=C/c2cccc(Oc3ccccc3)c2)cc1 ... 24.8 µM (inactive)
O=C(N/N=C(COc1ccc([N+](=O)[O-])cc1)\N=C\c1ccncc1)c1ccncc1 ... > 100 µM (inactive)
CCCCCCCCCCCCCP(=O)(O)NCC(N)=O ... 58.3 µM (inactive)
COc1cccc(NC(=O)/C(CC(=O)CC(c2ccccc2)c2c(O)c3ccccc3oc2=O)=N\NC(C)(C)C)c1OC (stereo not given) ... > 100 µM (inactive)

Per the record, CN1N=CSC12C(=O)N(c1ccc(Cl)cc1)C(=O)N2c1ccc(Cl)cc1 (stereo not given) has GI50 of 3.84 µM (inactive)

The recorded GI50 for entry O/N=N\c1nc(-c2cccnc2)nc2ccccc12 equals > 100 µM (inactive)

###

- Tested on: IGROV-1
- Assay procedure: NCI tumour cell line growth inhibition, 48 h
Active and inactive are the calls of the source. Cut-off read from the data, not from the text of the source: active = GI50 up to about 1.1 µM and inactive = higher.
Reported GI50 by item:

COC(=O)Cc1c2n(c3ccccc13)C(=O)N1c3ccccc3C(CC(=O)OC)C21 (stereo not drawn) ... 7.41 µM (inactive)

For the next question, use this compound.
So for C=CCCCCCCCCC(=O)O , the logged GI50 turned out to be 113 µM (inactive)
